Measured values drawn from ChEMBL document CHEMBL1153760 for this set.

- measurement protocol: Oral bioavailability in rat at 10 mg/kg administered as single dose by LC-MS/MS analysis
- Assay type: ADME, organism-based
- run conditions: in vivo
Lab note: anything with bioavailability at or over 10% counts as 1; the rest go in -1.

Past entries and their recorded results:
smiles record: Oc1ccc2c(c1)O[C@H](c1ccc(OCCN3CCSCC3)cc1)C1=C2CCOc2cc(O)ccc21
label: -1

smiles record: Oc1ccc2c(c1)O[C@H](c1ccc(OCCN3CCCCC3)cc1)C1=C2CCOc2ccccc21
label: -1

smiles record: COc1ccc2c(c1)O[C@H](c1ccc(OCCN3CCCCC3)cc1)C1=C2CCOc2cc(OC)ccc21
label: 1

smiles record: COc1ccc2c(c1)O[C@H](c1ccc(OCCN3CCCCC3)cc1)C1=C2CCOc2cc(O)ccc21
label: 1

QUERY: Quick check: does Oc1ccc2c(c1)O[C@H](c1ccc(OCCN3CCCCC3)cc1)C1=C2CCOc2cc(O)ccc21 have bioavailability greater than or equal to 10%?
RESULT: 1

QUERY: Quick check: does COc1ccc2c(c1)OCCC1=C2[C@@H](c2ccc(OCCN3CCCCC3)cc2)Oc2cc(O)ccc21 have bioavailability greater than or equal to 10%?
RESULT: 1
